molecular target: BlaC (Mycobacterium tuberculosis, UniProt P9WKD3); construct: made in house; host or cells: E. coli; test: BlaC fluorogenic inhibition assay with FC5 (dose-response); format: biochemical; details: pIC50 BlaC, Table S5 HTS hits; 30 minute inhibitor pre-incubation; two independent repeats
Sequence (P9WKD3 35-307): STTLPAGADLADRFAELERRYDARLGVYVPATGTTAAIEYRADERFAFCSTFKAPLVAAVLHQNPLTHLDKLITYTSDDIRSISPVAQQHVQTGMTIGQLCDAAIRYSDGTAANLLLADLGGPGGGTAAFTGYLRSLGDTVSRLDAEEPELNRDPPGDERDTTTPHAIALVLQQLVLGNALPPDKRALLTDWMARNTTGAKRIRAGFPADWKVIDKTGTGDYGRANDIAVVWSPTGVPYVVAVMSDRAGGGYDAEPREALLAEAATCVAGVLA
OBSERVABLE: pIC50
Please report pIC50 as the negative decimal logarithm of the molar concentration, giving only the number.

Recorded pIC50 (compound O=C1C=CC(=O)N1c1ccccc1 [Compound 3] ): 5.03

Recorded pIC50 (compound O=c1c2cc(Cl)c(Cl)cc2sn1CCO [Compound 15] ): 6.37

Recorded pIC50 (compound CCOc1ccc(CN2C(=O)C(=O)c3cc(Br)cc(C)c32)cc1OC [Compound 16] ): 4.44

Recorded pIC50 (compound N#Cn1c(-c2cnc(-c3cccs3)nc2)nc2ccccc21 [Compound 31] ): 4.95

Recorded pIC50 (compound CS(=O)(=O)c1ccc(F)c(N2C(=O)C=CC2=O)c1 [Compound 4] ): 4.22
